experimental_system: T1, 4H3907-bN
T1 chain: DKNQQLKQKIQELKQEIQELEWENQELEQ
experiment_description: two-hybrid library CCNG1;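 also: natural log of median RNA to DNA barcode read ratio; higher means stronger binding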
Recorded measurements of interaction score, one per entry
Could you keep your reply to the number by itself?

Here is how some binders turned out for interaction score.
* DENQQLEQEIQELEQKIQELKWKNQELKQ [4H1072-bN] | 1.91
* DENQQLEQKIQELKQKIQELKWENQELEQ [4H1387-bN] | 1.31
* DKIQQLKQEIQELEQEIQELEWKNQELKQ [4H2568-bN] | 0.402
* DKIQQLKQENQELEQKNQELKWEIQELEQ [4H2745-bN] | -1.56

# interaction score (binder: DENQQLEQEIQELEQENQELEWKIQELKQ [4H1046-bN] ) is -0.5

# interaction score (binder: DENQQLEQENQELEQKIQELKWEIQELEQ [4H1193-bN] ) is -0.628
